pKd reference
# experiment_description: Binding affinity to sh(-GUA-) RNA (unknown origin) by fluorescence titration method
Please treat pKd as minus the base-10 logarithm of the molar concentration.

>>> df
                              sample_smiles  test_value
0  CN(CCCNC(=O)Cn1cc2c(nc1=O)Nc1c(OCCN)cccc1O2)CCCNC(=O)Cn1cc2c(nc1=O)Nc1c(OCCN)cccc1O2        6.99

Now consider the entry below.
Query block: Requested read-out: pKd. Entry: CN(C)CCCNC(=O)Cn1cc2c(nc1=O)Nc1c(OCCN)cccc1O2
Result block: 6.69

* * *

# experiment_description: Binding affinity to sh(-GUG-) RNA (unknown origin) by fluorescence titration method
assay_readout: Kd
Answer with the figure and its unit, nothing else.

Query block: Requested read-out: Kd. Entry: CN(CCCNC(=O)Cn1cc2c(nc1=O)Nc1c(OCCN)cccc1O2)CCCNC(=O)Cn1cc2c(nc1=O)Nc1c(OCCN)cccc1O2
Result block: 9 nM
